- assay: NCI Yeast Anticancer Drug Screen. Data for the bub3 strain (AID 167)
- condition-parameters: S. cerevisiae bub3 mutant strain, at 5.0 µM (retest, dose inferred, filed as 0.5), stronger effect = higher value
About 79,000 compounds went through this panel and 15% of them were active in at least one assay; those are over-represented in the sample as a whole.
Measured growth inhibition, listed per entry.
quantity-measured: growth inhibition (%)

molecule | quantitative-result
C=CS(=O)(=O)c1ccc(Cl)cc1 | -34
C=CS(=O)(=O)c1ccc([N+](=O)[O-])cc1 | 20
[Ce+3].[Cl-].[O-]/N=C(\c1ccccc1)c1ccccn1.[O-]/N=C(\c1ccccc1)c1ccccn1.[O-]/N=C(\c1ccccc1)c1ccccn1 | 41
CCCCCCCCCCCCOCC[N+](CCO)(CCO)Cc1ccccc1 | 97
S=c1c2ccccc2[nH]c2ccccc12 | 8
CC(O)c1cccnc1 (stereo not given) | -6
O=C(O)C(O)C(O)C(O)C(O)CO.[Ag] (stereo not given) | 99
CC(C)n1nnc2ccccc2c1=Nc1ccccc1 | 0
[Cu+2].[O-]/N=C/c1cccc(O)c1[O-].[O-]/N=C/c1cccc(O)c1[O-] | -20
O=C(CBr)N1c2ccccc2S(=O)(=O)c2ccc3ccccc3c21 | 79
NC(=O)Nc1cc(=O)[nH]c(=S)[nH]1 | -1
O=C1CSC(=S)N1Cc1ccncc1 | 12
COC(=O)c1c(C(N)=O)c(C)n(NC(=O)Nc2ccccc2)c1C | 37
S=C(Nc1ccc(Cl)c(Cl)c1)SC1CCCCC1 | 17
N=C(N)SCc1ccc(Br)cc1 | -18
CC1(C)NC(=O)C(C)(C)NC1=O | 4
O=[N+]([O-])c1ccc(-c2ccc(-c3csc(Nc4ccccc4)n3)o2)cc1 | 97
COc1ccc(Cc2ccccc2C(=O)O)c2ccccc12 | 96
O=[N+]([O-])/C(Cl)=C(\Sc1ccccc1)C(Cl)=C(Cl)Cl | 99
COc1cccc2nc3c(C(=O)NCCN(C)C)cccc3cc12 | 22
Nc1ccc(N)c2c1C(=O)c1ccccc1C2=O | 0
ONC(=Nc1ccccc1)c1ccccc1 | -66
O=C1NC(=O)c2cccc3cccc1c23 | 3
CNC(=O)OCc1c(COC(=O)NC)c(-c2ccc(OC)cc2)n2c1CCC2 | 50
O=C(OCCCC(C(=O)c1ccccc1)=P(c1ccccc1)(c1ccccc1)c1ccccc1)c1ccccc1 | 14
